Where these numbers come from: ChEMBL document CHEMBL6083201

testedOn: Histone acetyltransferase KAT6A (Homo sapiens, UniProt Q92794)
Sequence (Q92794 whole entry): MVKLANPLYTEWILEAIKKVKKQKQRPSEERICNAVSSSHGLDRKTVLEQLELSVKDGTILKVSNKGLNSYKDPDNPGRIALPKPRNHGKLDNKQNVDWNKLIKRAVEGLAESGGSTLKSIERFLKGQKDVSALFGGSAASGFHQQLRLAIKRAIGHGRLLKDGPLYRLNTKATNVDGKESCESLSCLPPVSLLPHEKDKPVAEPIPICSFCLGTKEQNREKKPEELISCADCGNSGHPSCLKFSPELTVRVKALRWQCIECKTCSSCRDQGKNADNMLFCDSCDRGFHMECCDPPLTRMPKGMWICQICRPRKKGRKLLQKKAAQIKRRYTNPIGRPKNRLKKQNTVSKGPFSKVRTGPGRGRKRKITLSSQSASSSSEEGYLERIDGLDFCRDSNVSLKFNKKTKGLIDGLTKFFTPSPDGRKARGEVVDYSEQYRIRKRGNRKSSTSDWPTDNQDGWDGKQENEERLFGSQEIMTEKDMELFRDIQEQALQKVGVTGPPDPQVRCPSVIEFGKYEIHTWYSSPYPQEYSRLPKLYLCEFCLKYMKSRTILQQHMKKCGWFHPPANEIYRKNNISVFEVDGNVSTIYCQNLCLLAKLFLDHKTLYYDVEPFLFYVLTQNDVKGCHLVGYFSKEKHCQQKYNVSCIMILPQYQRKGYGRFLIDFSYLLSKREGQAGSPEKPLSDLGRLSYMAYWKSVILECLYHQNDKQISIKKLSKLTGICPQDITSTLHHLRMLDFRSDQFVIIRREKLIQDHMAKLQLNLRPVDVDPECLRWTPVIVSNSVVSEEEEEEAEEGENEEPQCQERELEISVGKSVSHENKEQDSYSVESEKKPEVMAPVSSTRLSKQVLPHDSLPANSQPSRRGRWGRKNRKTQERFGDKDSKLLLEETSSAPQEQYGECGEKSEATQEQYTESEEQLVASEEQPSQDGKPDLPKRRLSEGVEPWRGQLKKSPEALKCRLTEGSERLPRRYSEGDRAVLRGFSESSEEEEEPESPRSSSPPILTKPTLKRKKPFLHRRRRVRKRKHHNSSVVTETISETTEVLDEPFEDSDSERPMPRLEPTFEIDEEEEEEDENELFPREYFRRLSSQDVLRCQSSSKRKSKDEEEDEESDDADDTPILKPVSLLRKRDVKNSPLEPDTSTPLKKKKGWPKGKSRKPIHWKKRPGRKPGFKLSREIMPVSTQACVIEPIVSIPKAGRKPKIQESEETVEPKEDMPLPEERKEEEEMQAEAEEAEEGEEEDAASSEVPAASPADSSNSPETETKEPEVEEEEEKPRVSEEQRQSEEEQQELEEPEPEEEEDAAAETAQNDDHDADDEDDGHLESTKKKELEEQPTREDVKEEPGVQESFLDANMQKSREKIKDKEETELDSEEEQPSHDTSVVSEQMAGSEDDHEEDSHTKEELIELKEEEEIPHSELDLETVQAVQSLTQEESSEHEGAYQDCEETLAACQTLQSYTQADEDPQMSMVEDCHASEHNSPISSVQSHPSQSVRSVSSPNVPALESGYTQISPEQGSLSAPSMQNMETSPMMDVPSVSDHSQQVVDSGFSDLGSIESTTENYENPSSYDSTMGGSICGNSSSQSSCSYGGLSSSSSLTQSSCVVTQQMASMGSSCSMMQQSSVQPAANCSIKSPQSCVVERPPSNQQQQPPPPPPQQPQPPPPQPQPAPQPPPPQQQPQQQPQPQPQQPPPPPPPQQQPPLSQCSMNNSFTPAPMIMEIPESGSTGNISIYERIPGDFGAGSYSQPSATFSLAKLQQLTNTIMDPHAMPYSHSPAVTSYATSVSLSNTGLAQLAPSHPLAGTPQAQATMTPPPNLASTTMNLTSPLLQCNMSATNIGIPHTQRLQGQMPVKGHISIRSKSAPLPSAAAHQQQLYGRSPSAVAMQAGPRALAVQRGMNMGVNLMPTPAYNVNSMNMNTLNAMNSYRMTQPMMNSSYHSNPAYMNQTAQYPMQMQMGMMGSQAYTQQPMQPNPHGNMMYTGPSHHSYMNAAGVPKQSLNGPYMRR
pIC50: −log10 of the molar value.
property: pIC50

Requested read-out pIC50, target or system Histone acetyltransferase KAT6A (Homo sapiens, UniProt Q92794), entry "COc1ccc(C2=CCN(C)CC2)cc1-n1cc(NS(=O)(=O)c2ccccc2)nn1"
< 4.00
